- protocol summary: Solubility in PBS
- Type: physicochemical
readout kind: Solubility (µM)
The reply should contain only the number, in µM.

Below, 4 molecules whose answers are already recorded.
CC(=O)N1CCC[C@]12CC=CCCCC1(CCCC=CCCCOC(=O)N3CC[C@@](C(=O)N[C@@H](Cc4ccccc4Cl)C(=O)N[C@@H](Cc4csc5ccccc45)C(=O)N[C@H](CO)[C@@H](C)O)(C3)NC(=O)[C@H](CC(C)C)NC(=O)[C@H](Cc3ccccc3)NC(=O)[C@H](C)NC(=O)[C@H](CCCCNC(C)C)NC(=O)[C@H](CC(=O)O)NC(=O)[C@H](CC(=O)O)NC1=O)NC(=O)[C@H](CC(C)(C)C)NC(=O)[C@H](CC(=O)O)NC2=O (some centres unmarked) = 10
CC(=O)N1CCC[C@]12CC=CCCCC1(CCCC=CCCCOC(=O)N3CC[C@@](C(=O)N[C@@H](Cc4ccccc4Cl)C(=O)N[C@@H](Cc4csc5ccccc45)C(=O)N[C@@H](CO)C(N)=O)(C3)NC(=O)[C@H]([C@@H](C)O)NC(=O)[C@H](Cc3ccccc3)NC(=O)[C@H](CC(C)C)NC(=O)[C@H](C)NC(=O)[C@H](CC(=O)O)NC(=O)[C@H](CC(=O)O)NC1=O)NC(=O)[C@H](CC1CCCCC1)NC(=O)[C@H](CC(=O)O)NC2=O (some centres unmarked) = 10
CC(=O)N1CCC[C@]12CC=CCCCC1(CCCC=CCCCOC(=O)N3CC[C@@](C(=O)N[C@@H](CC4CCCCC4)C(=O)N[C@@H](Cc4csc5ccccc45)C(=O)N[C@@H](CCC(N)=O)C(N)=O)(C3)NC(=O)[C@H](Cc3ccccc3)NC(=O)[C@H](Cc3ccccc3)NC(=O)[C@H](C)NC(=O)[C@H](C)NC(=O)[C@H](CC(=O)O)NC(=O)[C@H](CC(=O)O)NC1=O)NC(=O)[C@H](CC(C)(C)C)NC(=O)[C@H](CC(=O)O)NC2=O (some centres unmarked) = 10
CC(=O)N1CCC[C@]12CC=CCCCC1(CCCC=CCCCOC(=O)N3CC[C@@](C(=O)N[C@@H](Cc4ccsc4)C(=O)N[C@@H](Cc4csc5ccccc45)C(=O)N[C@@H](CO)C(N)=O)(C3)NC(=O)[C@H]([C@@H](C)O)NC(=O)[C@H](Cc3ccccc3)NC(=O)[C@H](C)NC(=O)[C@H](C)NC(=O)[C@H](CN(CC(=O)O)CC(F)(F)F)NC(=O)[C@H](CC(=O)O)NC1=O)NC(=O)[C@H](CC(C)(C)C)NC(=O)[C@H](CC(=O)O)NC2=O (some centres unmarked) [I-957] = 46

Continue with the molecule presented below.
**Q:** Bench note: what Solubility did CC(=O)N1CCC[C@]12CC=CCCCC1(CCCC=CCCCOC(=O)N3CC[C@@](C(=O)N[C@@H](Cc4ccsc4)C(=O)N[C@@H](Cc4csc5ccccc45)C(N)=O)(C3)NC(=O)[C@H](CC(N)=O)NC(=O)[C@H](Cc3ccccc3)NC(=O)[C@H](C)NC(=O)[C@H](C)NC(=O)[C@H](CC(N)=O)NC(=O)[C@H](CC(=O)O)NC1=O)NC(=O)[C@H](CC(C)(C)C)NC(=O)[C@H](CC(=O)O)NC2=O (some centres unmarked) show?
**A:** 10

---

- assayed system: full-length B-Catenin (Uniprot ID P35222) (Homo sapiens)
- Construct: 65 nM full-length B-Catenin (Uniprot ID P35222)
- Sequence (P35222 whole entry): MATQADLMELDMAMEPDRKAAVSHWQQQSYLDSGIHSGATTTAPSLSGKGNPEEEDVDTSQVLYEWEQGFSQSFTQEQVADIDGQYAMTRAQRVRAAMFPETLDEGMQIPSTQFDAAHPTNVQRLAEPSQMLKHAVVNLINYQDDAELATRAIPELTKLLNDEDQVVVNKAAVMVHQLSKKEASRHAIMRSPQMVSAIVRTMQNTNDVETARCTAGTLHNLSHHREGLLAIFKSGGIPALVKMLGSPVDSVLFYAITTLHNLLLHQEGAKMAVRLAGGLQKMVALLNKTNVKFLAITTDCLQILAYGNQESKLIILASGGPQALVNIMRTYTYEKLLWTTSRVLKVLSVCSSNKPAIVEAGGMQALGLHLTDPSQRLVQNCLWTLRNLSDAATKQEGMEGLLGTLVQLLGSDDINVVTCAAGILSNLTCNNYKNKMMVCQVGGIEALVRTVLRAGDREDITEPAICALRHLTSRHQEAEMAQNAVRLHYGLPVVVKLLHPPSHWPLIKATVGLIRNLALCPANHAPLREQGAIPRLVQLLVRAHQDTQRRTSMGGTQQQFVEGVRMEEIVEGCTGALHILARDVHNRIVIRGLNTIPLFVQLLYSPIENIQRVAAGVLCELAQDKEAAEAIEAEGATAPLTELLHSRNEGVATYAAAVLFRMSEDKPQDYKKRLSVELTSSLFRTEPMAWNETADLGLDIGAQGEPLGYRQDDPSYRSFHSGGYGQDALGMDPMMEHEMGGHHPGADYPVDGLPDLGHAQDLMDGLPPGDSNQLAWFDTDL
- protocol summary: Alphascreen binding assay (beta-catenin / biotin-TCF4 10-53)
Recorded EC50 by entry
The reply should contain only the number, in µM.

Below, 2 compounds whose answers are already recorded.
CC(=O)N1CCC[C@]12CC=CCCCC1(CCCC=CCCCCCC[C@@](C)(C(=O)N[C@@H](Cc3cccc(Cl)c3)C(=O)N[C@@H](Cc3c[nH]c4ccccc34)C(=O)N[C@@H](CCC(N)=O)C(N)=O)NC(=O)[C@H](C(C)C)NC(=O)[C@H](Cc3ccccc3)NC(=O)[C@H](C)NC(=O)[C@H](C)NC(=O)[C@H](CC(=O)O)NC(=O)[C@H](CC(=O)O)NC1=O)NC(=O)[C@H](C)NC(=O)[C@H](CC(=O)O)NC2=O (stereo partly drawn) [I-310] = 3.24
CC(=O)N1CCC[C@]12CC=CCCCC1(CCCC=CCCCCCC[C@@](C)(C(=O)N[C@@H](Cc3ccccc3F)C(=O)N[C@@H](Cc3c[nH]c4ccccc34)C(=O)N[C@@H](CCC(N)=O)C(N)=O)NC(=O)[C@H](C(C)C)NC(=O)[C@H](Cc3ccccc3)NC(=O)[C@H](C)NC(=O)[C@H](C)NC(=O)[C@H](CC(=O)O)NC(=O)[C@H](CC(=O)O)NC1=O)NC(=O)[C@H](C)NC(=O)[C@H](CC(=O)O)NC2=O (stereo partly drawn) [I-319] = 0.054

**Q:** Bench note: what EC50 did CC(=O)N1CCC[C@]12CC=CCCCC1(CCCC=CCCCCCC[C@@](C)(C(=O)N[C@@H](Cc3ccccc3)C(=O)N[C@@H](Cc3c[nH]c4ccccc34)C(=O)N[C@@H](CCC(N)=O)C(N)=O)NC(=O)[C@H](C(C)C)NC(=O)[C@H](Cc3ccc(C(F)(F)F)cc3)NC(=O)[C@H](C)NC(=O)[C@H](C)NC(=O)[C@H](CC(=O)O)NC(=O)[C@H](CC(=O)O)NC1=O)NC(=O)[C@H](C)NC(=O)[C@H](CC(=O)O)NC2=O (stereo partly drawn) [I-243] show?
**A:** 4.91

---

Recorded CHI Log D by entry
- protocol summary: CHI Log D procedure
- Assay type: physicochemical
- condition context: pH 7.4
Write the number on its own, no unit after it.

Below, 3 molecules whose answers are already recorded.
CC(=O)N1CCC[C@]12CC=CCCCC1(CCCC=CCCCCCC[C@@](C)(C(=O)N[C@@H](Cc3ccccc3)C(=O)N[C@@H](Cc3c[nH]c4ccccc34)C(=O)N[C@@H](CCC(N)=O)C(N)=O)NC(=O)[C@H](C(C)C)NC(=O)[C@H](Cc3cn(C)cn3)NC(=O)[C@H](C)NC(=O)[C@H](C)NC(=O)[C@H](CC(=O)O)NC(=O)[C@H](CC(=O)O)NC1=O)NC(=O)[C@H](C)NC(=O)[C@H](CC(=O)O)NC2=O (some centres unmarked) [I-329] = 2.01
CC(=O)N1CCC[C@]12CC=CCCCC1(CCCC=CCCCCCC[C@@](C)(C(=O)N[C@@H](Cc3ccccc3)C(=O)N[C@@H](Cc3csc4ccccc34)C(=O)N[C@@H](CCC(N)=O)C(N)=O)NC(=O)[C@H](CCC(N)=O)NC(=O)[C@H](Cc3cccc(C(F)(F)F)c3)NC(=O)[C@H](C)NC(=O)[C@H](C)NC(=O)[C@H](CC(=O)O)NC(=O)[C@H](CC(=O)O)NC1=O)NC(=O)[C@H](C)NC(=O)[C@H](CC(=O)O)NC2=O (some centres unmarked) [I-379] = 2.143
CC(=O)N1CCC[C@]12CC=CCCCC1(CCCC=CCCCOC(=O)N3CC[C@@](C(=O)N[C@@H](Cc4ccsc4)C(=O)N[C@@H](Cc4csc5ccccc45)C(=O)N[C@@H](CCC(N)=O)C(N)=O)(C3)NC(=O)[C@H]([C@@H](C)O)NC(=O)[C@H](Cc3ccccc3)NC(=O)[C@H](C)NC(=O)[C@H](C)NC(=O)[C@H](Cc3cccc(C(=O)O)c3)NC(=O)[C@H](CC(=O)O)NC1=O)NC(=O)[C@H](CC(C)(C)C)NC(=O)[C@H](CC(=O)O)NC2=O (some centres unmarked) [I-981] = 1.761

**Q:** Bench note: what CHI Log D did CC(=O)N1CCC[C@]12CC=CCCCC1(CCCC=CCCCCCC[C@@](C)(C(=O)N[C@@H](Cc3ccccc3)C(=O)N[C@@H](Cc3csc4ccccc34)C(=O)N[C@@H](CCC(N)=O)C(N)=O)NC(=O)[C@H](CC(N)=O)NC(=O)[C@H](Cc3ccccc3)NC(=O)[C@H](C)NC(=O)[C@H](C)NC(=O)[C@H](CCC(=O)O)NC(=O)[C@H](CNS(C)(=O)=O)NC1=O)NC(=O)[C@H](C)NC(=O)[C@H](CC(=O)O)NC2=O (some centres unmarked) [I-529] show?
**A:** 2.854

**Q:** Bench note: what CHI Log D did CC[C@H](C)[C@@H]1NC(=O)[C@H](CC(=O)O)NC(=O)[C@]2(CC=CCCCC3(CCCC=CCCCCCC[C@@](C)(C(=O)N[C@@H](Cc4ccccc4OC)C(=O)N[C@@H](Cc4csc5ccccc45)C(=O)N[C@@H](Cc4c[nH]cn4)C(N)=O)NC(=O)[C@H](CC(N)=O)NC(=O)[C@H](Cc4ccccc4)NC(=O)[C@H](C)NC(=O)[C@H](C)NC(=O)[C@H](CC(=O)O)NC(=O)[C@H](CC(=O)O)NC3=O)NC1=O)CCCN2C(C)=O (some centres unmarked) [I-554] show?
**A:** 2.457
